# System: A204
# experiment.notes: relative viability vs DMSO control (72 h) (fraction); higher = more viable cells
# condition.notes: 0.00017 µM
measured.attribute: relative viability
Lab note: jot down the number only; don't add units.

# count of solved cases: 3
>>> df
                                   compound  system  obs_value
0  O=C1NC(=O)[C@@H](c2cn3c4c(cccc24)CCC3)[C@@H]1c1c[nH]c2ccccc12 [Tivantinib]    A204       1.08
1  CCN(CC)CCNC(=O)c1c(C)[nH]c(/C=C2\C(=O)Nc3ccc(F)cc32)c1C    A204       1.06
2   O=c1sn(-c2cccc3ccccc23)c(=O)n1Cc1ccccc1    A204       1.09

Entry "CC(C)NC[C@@H](C(=O)N1CCN(c2ncnc3c2[C@H](C)C[C@H]3O)CC1)c1ccc(Cl)cc1" — recorded relative viability = 1.06

Entry "C[C@]12O[C@H](C[C@]1(O)CO)n1c3ccccc3c3c4c(c5c6ccccc6n2c5c31)CNC4=O" — recorded relative viability = 1.07

Entry "CC(C)Oc1ccc(-c2nn([C@@H](C)c3oc4ccc(F)cc4c(=O)c3-c3cccc(F)c3)c3ncnc(N)c23)cc1F" — recorded relative viability = 1.08

====

# Test system: G401
# experiment.notes: relative viability vs DMSO control (72 h) (fraction); higher = more viable cells
# condition.notes: 0.00457 µM
Some molecules, each annotated with its measured relative viability.
Lab note: jot down the number only; don't add units.

# count of solved cases: 5
In [3]: df
Out[3]:
                                   molecule  obs_value
0  COCCNc1cc(NC(=O)N2CCCc3cc(CN4CCN(C)CC4=O)c(C=O)nc32)ncc1C#N      0.912
1          O=S(=O)(c1cccc2cnccc12)N1CCCNCC1      0.943
2   O=c1sn(-c2cccc3ccccc23)c(=O)n1Cc1ccccc1        1.1
3  O=C(Nc1nc2cccc(-c3ccc(CN4CCS(=O)(=O)CC4)cc3)n2n1)C1CC1       1.03
4  CC(C)(C)c1nc(-c2cccc(NS(=O)(=O)c3c(F)cccc3F)c2F)c(-c2ccnc(N)n2)s1      0.937

Entry "Clc1ccc(Nc2nnc(Cc3ccncc3)c3ccccc23)cc1" , G401 data, relative viability value: 0.973

Entry O=C1NC(=O)[C@@H](c2cn3c4c(cccc24)CCC3)[C@@H]1c1c[nH]c2ccccc12 [Tivantinib] , G401 data, relative viability value: 1.03

Entry "COc1cc(OC)c(/C=C/S(=O)(=O)Cc2ccc(OC)c(NCC(=O)O)c2)c(OC)c1" , G401 data, relative viability value: 1.02

Entry "CC(C)NC[C@@H](C(=O)N1CCN(c2ncnc3c2[C@H](C)C[C@H]3O)CC1)c1ccc(Cl)cc1" , G401 data, relative viability value: 0.956

Entry "Cc1cccc(-c2nn3c(c2-c2ccnc4ccc(C(N)=O)cc24)CCC3)n1" , G401 data, relative viability value: 0.959

====

# Tested on: SW982
# experiment.notes: standardised AUC of viability dose-response curve (72 h) (fraction (0-1)); higher = less growth inhibition (more resistant)
Some molecules, each annotated with its measured standardised AUC.
Lab note: jot down the number only; don't add units.

# count of solved cases: 2
In [3]: df
Out[3]:
                                   molecule  obs_value
0  CCC(=O)N1CC[C@H](Nc2ncnc3c2CN(c2cnc(OC)c(C(F)(F)F)c2)CC3)C1      0.955
1  CC(C)(O)CNc1nc(Nc2ccnc(C(F)(F)F)c2)nc(-c2cccc(C(F)(F)F)n2)n1          1

Entry "Cc1cccc(-c2nn3c(c2-c2ccnc4ccc(C(N)=O)cc24)CCC3)n1" , SW982 data, standardised AUC value: 0.992

Entry "COc1cc(OC)c(/C=C/S(=O)(=O)Cc2ccc(OC)c(NCC(=O)O)c2)c(OC)c1" , SW982 data, standardised AUC value: 0.748

Entry "Cc1cc2cc(Oc3ccnc(Nc4cccc(CS(=O)(=O)NCCN(C)C)c4)n3)ccc2[nH]1" , SW982 data, standardised AUC value: 0.924

These data points were gathered from the supplement of paper PMC10883282.
